Experiment: soluble on expression in E. coli; label from the status in PepcDB or PDB records
reported.property: soluble on expression in E. coli

- record.sequence: "MDNTRIMAAREAGVKVEANVHNFNDRLSSKERIRFKHDGIEPQTWGEAIQLRIRKQETQKGVPEGWSKRFPNGSIYDVKVLRK"
  reported.property: "soluble on expression in E. coli"
  recorded.value: "not soluble"
- record.sequence: "HEIPYDNTSLPAVTFMQPSAKKNLLIFGGYDSNLEELILWFSPLRNNGYNLIIFDGPGQGNMLFKKEKSHFIMNFEKPVAAVLDYFSLDRVAALGLSWGGFFVMRAAAFEKRIEKIIALDIFYQGLDALTIAMNPVLAFIFKTLVNFKCKTWIDVLLTHAMTRDLDLNWKIKRGYQLTGTKTPYDLIQNIKKHNMKGLGPLINQEVLLLAGEKDQYVPVKRLGQIKKELSNAAEIKTHLFTQESGGEQHCQAGSNLALLAIKDFLK"
  reported.property: "soluble on expression in E. coli"
  recorded.value: "not soluble"
- record.sequence: "MLVNGALSTTGSFGQTVKYLQPHYNLVLFDLPFSGQSRAHNPDEMIVSKEDEVQILLQLIDLYQVNYLLSVSWGGVSALLALAQCPASVEKAIISSFSPVLNEPMLDYIDKAQVYLAAREKRKIGSLLNDTVGKHLPRLFKLYNYKHLIGLAEHEYGQIDFHISQIRTLSASNYVERFSSIKIPVLFINGEKDEYTTVEDARMFSNYIAKSSFNVVPDTGHFLDLESKAAWHHSQKTALSFLGT"
  reported.property: "soluble on expression in E. coli"
  recorded.value: "not soluble"

---

Experiment: soluble on expression in E. coli; label from the status in PepcDB or PDB records
reported.property: soluble on expression in E. coli

- record.sequence: "MEAQAQGLLETEPLQGTDEDAVASADFSSMLSEEEKEELKAELVQLEDEITTLRQVLSAKERHLVEIKQKLGMNLMNELKQNFSKSWHDMQTTTAYKKTHETLSHAGQKATAAFSNVGTAISKKFGDMSYSIRHSISMPAMRRK"
  reported.property: "soluble on expression in E. coli"
  recorded.value: "soluble"
- record.sequence: "MSLIKVIDAHVHYHIYARKIPEHCKEFLENVEGTRMTLKNDNVEIEKILLVPSHPCHSEDCYDGFYIDYEERKRNPDLYMQWGEVNPLKCDVKRELERQYSLGIIGIKLHPVHHTFKPNAYREEEGGLKQLLYIYEFAEDHGLPILIHTGTSIGVGSRNKYADPIYADDIAKDFPKLRIILAHAGRPLWYNTAFHMARFTQNIFLEISSIPPKNILKVLPRIHEISDKVIYGSDFPAFKGQDLAEYAYQVYNVLKNEKIMRDNAKRILKISEGHHHHHH"
  reported.property: "soluble on expression in E. coli"
  recorded.value: "not soluble"
- record.sequence: "MQNDNHSTAQPEKDVARLTEEVREAIAHGGDIENAIRNLTLKAMHSNGLDIESLKQIATAVMKGVQEGAQQKMTHAAEQSHAAQSQITQAVVGLDTAFAQLAGASKLALEEAASKAKQFSDSELTKAQADLKDLESVFLDTLKHTATAAQGLIAETLRDMLSHAQHNGTAVGMQLKDTLAVFAHQMASTGRAQFEAGVKLTQTTADLLYKISTGVLSGITSQTNRDDK"
  reported.property: "soluble on expression in E. coli"
  recorded.value: "not soluble"
- record.sequence: "SKQPDKQRKSQRRAPLHERHKQVRATLSADLREEYGQRNVRVNAGDTVEVLRGDFAGEEGEVINVDLDKAVIHVEDVTLEKTDGEEVPRPLDTSNVRVTDLDLEDEKREARLESEDDSA"
  reported.property: "soluble on expression in E. coli"
  recorded.value: "soluble"

---

Experiment: soluble on expression in E. coli; label from the status in PepcDB or PDB records
reported.property: soluble on expression in E. coli

- record.sequence: "MENEMKEKAVIFTGNSISHEDAKKILLANYQPPVRRFQLEKFIQQGYKVMGIIDGIFFDRAAVGHREIISALNAGVRVVGGASMGALRASELDTHGMIGVGKVYEWYRDGVIESDDEVAISTNPETFEPISVPLVNIRETLKAALGAGILSEKEYEDILELAISTYYPDRSYLGLTKEGAKKGLISEEKRKLLLDFCINSEVDVKKRDAVLVIETVKRLVEETEV"
  recorded.value: "not soluble"
- record.sequence: "MGSDKIHHHHHHMTNLGTAKNFWDATLYQDKHSFVWQYGEDLLQLLNPQPGEFILDLGCGTGQLTEKIAQSGAEVLGTDNAATMIEKARQNYPHLHFDVADARNFRVDKPLDAVFSNAMLHWVKEPEAAIASIHQALKSGGRFVAEFGGKGNIKYILEALYNALETLGIHNPQALNPWYFPSIGEYVNILEKQGFDVTYAALFNRPTTLAEGEFGMANWIQMFASAFLVGLTPDQQVQLIRKVEATLQDKLYHQESWTADYRRIRIVSIKAQ"
  recorded.value: "not soluble"

---

Test: soluble on expression in E. coli; label from the status in PepcDB or PDB records

- record.sequence: "MQPSFRIVADGTDVTQRLNDRLLKLTLLDKPGMESDSLTLRIDDRDGQVALPRRGAVLEVHLGYAGEPLMRMGRFTVDTLQWAGPPDCLTVTAKAGDMRGSGKTIRSGGWEGTTLAQVCRDVGARNGWRVECPLQVAIARVDQVNESDYHFVTRLARQYDCTAKLAEGMLMVLPRQSGQSATGRRIEPLVLGRADVGSFDVTFDDRSLMRTVKTRYQLPGSGEVKSVELKNPKAPATAMGEHVDRHLYTSRGEAEQAAKARLASFSRSSASVRLELPGRGDLFAERSLLLQGFKAGIDGEFLIDSVEHTYSSSGWTTVVQCNGGRGGKG"
  soluble on expression in E. coli: "not soluble"
- record.sequence: "MGSDKIHHHHHHDSVKTNTNPQQAIQGEWISYSESKINLPKTTSAADAHKLLDLTASTSEKIKFDKKKVTLATNEYDYKLGRQIIIGSYSYDYKLEHGQDILKFDTTSSDIGGNVYYRVGSKLEKEKTKEINDKEAKEKKSVTHLNEVWKAKTDIIEKSLKEAMIGTWSGHFKAVATTGQGVAWAPGMQTLTFDGGTNLSFHASSDSLTNFDQIVIHNAYASYQPNGILGLEPSDHIPVDPKKLLNIIKDLTAEQMFSRIKYIAFSYDVTTDTGTISQSFSPSELSYKNGKLSFDTALLITQCGDEGVQISGDVSKTE"
  soluble on expression in E. coli: "not soluble"

---

Assay: soluble on expression in E. coli; label from the status in PepcDB or PDB records
reported.property: soluble on expression in E. coli

- record.sequence: "KHLFDEIDTIDVMDVNAGDHGKKFATNFDPETNMLEIQGDSFYWENGEWKQVPCHSRMLEFEFPNCGSHKVYSMAHDEVRSMKEFIPAKRIEFWMGFGDRYLNYFNVMRDIGLLSPDPLTLHDGTVVQPLHVLKALLPDP"
  reported.property: "soluble on expression in E. coli"
  recorded.value: "not soluble"
- record.sequence: "MTRSVSHPPYADPFAHPPETSPQELTAQLTPGARFQDVRFENYRPNPEFPSQAQARDQLAEFVRQAGQKASGGGFWPFKRRAPEGRGFYLDGGFGVGKTHLLASAYHAAKGQSGGSGGDVAFMSFQDLMYLIGALGMPQAIETFRNYKLLLIDEFELDDPGNTHMANTFLGGLMPSGVSVVATSNTEPGALGAGRFNAEDFQRQIQGIADRFGPHRIDGPDYRQRGTEPAQPLSEAEFAAWLARQNPQTTALMTHAELNRALLSVHPSRFARVLEQVSGVAVTNLEPMPEQGEALRFVHFVDKVYDLGLSAAFTGVPLNALFDDIYRNGGYAKKYSRALSRLSEMLREARGLEHHHHHH"
  reported.property: "soluble on expression in E. coli"
  recorded.value: "not soluble"

---

Experiment: soluble on expression in E. coli; label from the status in PepcDB or PDB records

- record.sequence: "MSATETITTNARVLGADPLVKDGFGEEDMLTLVLPYIKTAREGVLRLGELLETYGTYESNGIAFADTEEIWWLKTIGGHNWIARRVPDDAYVTNPNQLGIDHYEFENPDDYLASPDIRDFINKHHLDLTYSNEHFNPRYAFGSQRDKDHHYNTPRARAM"
  soluble on expression in E. coli: "soluble"
- record.sequence: "MNVTVAPQDETLSARAGRVATIAAKHADDVDVTGRFPQEAVDALRRERLLGIQVPSSLGGEGASIQEIADICARLGQACSATAMIFAMHHIKLSSLVEHGVDSTWHPGFMRRVAGEQLLLGSATTEGGIGGNLRNSICAIEVEGDSCRLEKDATVISYGSNADAILITSRAHKDAAPADQVMTVFLKNQYTLEKTHVWDTLGMRGTCSDGFLFRGEAPAAQIFPKPFAEIAAQSMLASSHLLWSAVWYGIASDAVLRAQSFVRAAARKSPGTAPPGAIRLAEVSTKLQVVKSNIIAGIKAYEDTKSDPEKLMSMAFAVAMNNVKICSSETILEIIDHAMLVCGIMGYKNGTPYSLGRHLRDAHSARLMISNDRILGNSANLLLVHRQDTSLLG"
  soluble on expression in E. coli: "soluble"
